Attribution: patent US20200239579A1

# experimental.system: T1, PDLoneECDHisCtag (human, UniProt Q9NZQ7 19-238)
# T1 construct: Expressed in HEK-293F cells; theoretical molecular weight 29 kDa; also called recombinant human PD-L1 ECD; human PD-L1 (BLI); not shown: C-terminal His-tag; C-tag
# T1 sequence (Q9NZQ7 19-238, form in doubt): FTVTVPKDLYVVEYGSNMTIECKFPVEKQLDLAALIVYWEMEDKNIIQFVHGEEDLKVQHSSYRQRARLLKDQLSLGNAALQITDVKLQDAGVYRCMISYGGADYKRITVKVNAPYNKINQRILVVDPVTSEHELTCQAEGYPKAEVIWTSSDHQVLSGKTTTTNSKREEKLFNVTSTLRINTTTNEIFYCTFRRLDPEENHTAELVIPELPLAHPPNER
# protocol.notes: BLI cross-block, second antibody on PDLoneECDHisCtag held by immobilised MEDI; bold = blocking
Catalogue of association response of the second antibody values
Please reply with the bare figure in nm and do not write the unit itself.

IgG1-511-LC33S-FEAR (antibody, V domains shown) VH: QVQLVQSGSELKKPGASVMVSCKASGYTFTSYVMNWVRQAPGQGLEWMGWINSYTGNPTSAQGFTGRFVFSFDTSVNTAYLQISSLKAEDTAVYYCARGYCTSTSCYLDYWGQGTLVTVSS VL: SYELTQPPSVSVSPGHTARITCSGDALPKKYASWFQQKSGQAPVLVIYEDSKRPSGIPERFSGSTSGTMATLTISGAQVEDETDYYCYSADTSGTHRVFGGGTKLTVLG | 0
IgG1-547-FEAR (antibody, V domains shown) VH: EVQLLEPGGGLVQPGGSLRLSCEASGSTFSTYAMSWVRQAPGKGLEWVSGFSGSGGFTFYADSVRGRFTISRDSSKNTLFLQMSSLRAEDTAVYYCAIPARGYNYGSFQHWGQGTLVTVSS VL: SYVLTQPPSVSVAPGQTARITCGGNNIGSKSVHWYQQKPGQAPVLVVYDDNDRPSGLPERFSGSNSGNTATLTISRVEAGDEADYYCQVWDSSSDHVVFGGGTKLTVLG | 0

Would you kindly look at the next entry?
Q. I have this binder here, IgG1-421-LC91S-FEAR (antibody, V domains shown) VH: EVQLVESGGGLVQPGRSLRLSCAASGFTFDDYAMHWVRQGPGKGLEWVSGIRWNSGSMHYADSVKGRFTISRDNAKSSLYLQMNSLRAEDTALYYCARAPWYSGAWHPDYWGQGTLVTVSS VL: QSALTQPRSVSGSPGQSVTISCTGTSSDVGTYNYVSWYQQHPGKAPKLMIYDVIKRPSGVPDRFSGSKSGNTASLTLSGLQAEDEADYYCSSYAGTYTLLFGGGTKLTVL , and I need its recorded association response of the second antibody.
A. 0
